- EXPERIMENT NOTES: Mean AUC (0-infinity) of simvastatin following administration of reference product Zocor 80 mg tablet in healthy human
- Type: ADME, organism-based
- ASSAY CONTEXT: plasma, po, read-out: AUC (0-infinity)
METRIC: AUC(0-inf) (ng·h/mL)
Supply the numeric figure in ng·h/mL, leaving out any unit text.

Request the reported AUC(0-inf) associated with CCC(C)(C)C(=O)O[C@H]1C[C@@H](C)C=C2C=C[C@H](C)[C@H](CC[C@@H]3C[C@@H](O)CC(=O)O3)[C@H]21 [SIMVASTATIN]
102

----------
- EXPERIMENT NOTES: Mean AUC (0-t) of simvastatin following administration of simvastatin 80 mg orally disintegrating tablet in healthy human
- Assay type: ADME, organism-based
- ASSAY CONTEXT: plasma, po
METRIC: AUC(0-t) (ng·h/mL)
Write the answer as a number in ng·h/mL, unit excluded.

Need AUC(0-t) of CCC(C)(C)C(=O)O[C@H]1C[C@@H](C)C=C2C=C[C@H](C)[C@H](CC[C@@H]3C[C@@H](O)CC(=O)O3)[C@H]21 , thanks.
77.6
